These entries and their values trace back to the supplement of paper PMC8728848.

Biological target: Gal(b1-4)GlcNAc(b1-3)Gal(b1-4)GlcNAc(b1-3)Gal(b1-4)GlcNAc(b1-2)Man(a1-3)[Gal(b1-4)GlcNAc(b1-3)Gal(b1-4)GlcNAc(b1-3)Gal(b1-4)GlcNAc(b1-2)Man(a1-6)]Man(b1-4)GlcNAc(b1-4)GlcNAc
Assay: glycan array binding signal (z-score within array); higher = stronger binding
Settings: glycan notation: IUPAC condensed, linker removed
This excerpt belongs to a sample that is enriched for the strongest signals.
Listed here are binders together with their documented glycan array binding signal (z-score).

- binder: "SBD-G4S3-SBD (protein) MASIPSSASVQLDSYNYDGSTFSGKIYVKNIAYSKKVTVVYADGSDNWNNNGNIIAASFSGPISGSNYEYWTFSASVKGIKEFYIKYEVSGKTYYDNNNSANYQVSTGGGGSGGGGSGGGGSEFASIPSSASVQLDSYNYDGSTFSGKIYVKNIAYSKKVTVVYADGSDNWNNNGNIIAASFSGPISGSNYEYWTFSASVKGIKEFYIKYEVSGKTYYDNNNSANYQVST"
  glycan array binding signal (z-score): 1.38
- binder: "HA-61200 (Pseudomonas aeruginosa), Q02SP8_PSEAB (protein) MNKCYALVWNVSQGCWNVVSEGSRRRGKPAGAKAAIASVLALLGATALAPAYALPSGGTVVGGSANGEIHLSGGNSLSVNQKVDKLIANWDSFSVAAGERVIFNQPSSSSIALNRVIGTKASDIQGRIDANGQVFLVNPNGVLFGRGAQVNVGGLVASTLDITDAEFNGNSSRYRFTGPSTNGVLNHGGAITAAEGGSIALLGAQVDNRGTVLAQMGGVGLGAGSDLTLNFDGNKLLDIRVDAGVANALASNGGLLKADGGRVLMAARTANALLNTVVNSQGAIEARSLRGKNGRIVLDG"
  glycan array binding signal (z-score): 3.1
- binder: "CBM13 2a (Mycobacterium tuberculosum), P64849 (protein) DGPVQLKSRLGDVCLDAPSGSWFSPLVINPCNGTDFQRWNLTDDRQVESVAFPGECVNIGNALWARLQPCVNWISQHWTVQPDGLVKSDLDACLTVLGGPDPGTWVSTRWCDPNAPDQQWDSVPLEHHHHHH"
  glycan array binding signal (z-score): 3.22
